Entry source: ChEMBL document CHEMBL4706689

System: Candida albicans
Assay: Inhibition of hyphal formation in Candida albicans SC5314 cultured in spider medium assessed as reduction in hyphal length at 25 ug/ml relative to control
Assay type: functional
resultType: inhibition at 25 µg/mL (%)
Give a bare numeral; the unit % is implied.

Example results:
>>> obsvalue("C[C@H]1CC[C@H]2[C@H](C1)c1c(c(-c3cccs3)c(Cl)[nH]c1=O)OC2(C)C")
30
>>> obsvalue("CC(C)=CC[C@]1(C)Oc2c(-c3ccc(C)cc3)c(Cl)[nH]c(=O)c2[C@H]2c3ccccc3OC[C@H]21")
30
>>> obsvalue("Cc1ccc(-c2c(Cl)[nH]c(=O)c3c2OC(C)(C)C=C3)cc1")
30
>>> obsvalue("CC1(C)C=Cc2c(c(-c3ccccc3)c(Cl)[nH]c2=O)O1")
30

Would you kindly share the measured inhibition at 25 µg/mL for C[C@H]1Oc2c(-c3cccs3)c(Cl)[nH]c(=O)c2[C@H]2c3ccccc3OC[C@H]21 ?
30

Would you kindly share the measured inhibition at 25 µg/mL for CC(C)=CCC1(C)C=Cc2c(c(-c3ccc(C)cc3)c(Cl)[nH]c2=O)O1 (stereo not given) ?
30
